Where do these numbers come from? They come from ChEMBL document CHEMBL1201862.

Each item that follows carries a reported GI50.
System: OVCAR-4
assaySummary: NCI tumour cell line growth inhibition, 48 h
The source made the active and inactive calls. Cut-off read from the data, not from the text of the source: active = GI50 up to about 1.1 µM and inactive = higher.

These recorded examples may help you get a feel for the data.
{"molecule": "COc1ccc2c(c1)[n+]([O-])c(C(=O)C/C(=N/OCCCc1ccccc1)C(=O)NC13CC4CC(CC(C4)C1)C3)c(C)[n+]2[O-]", "GI50": "> 100 µM (inactive)"}
{"molecule": "O=C1C(CO)=C[C@H](O)[C@H]2O[C@@H]12", "GI50": "130 µM (inactive)"}
{"molecule": "COc1cc(C=C2C(=O)NC(=S)NC2=O)cc(OC)c1OC", "GI50": "> 100 µM (inactive)"}
{"molecule": "O=c1ccn([C@@H]2C[C@H]2CO)c(=O)[nH]1", "GI50": "> 100 µM (inactive)"}
{"molecule": "COC(O)C12OC3CO[Si](C(C)C)(C(C)C)O[Si](C(C)C)(C(C)C)OC3C1Oc1nc(=O)ccn12 (configuration not stated)", "GI50": "14.2 µM (inactive)"}

Entry C=C(C)C1CC2C(C)=C(OC(C)=O)C1n1c(=O)c3cc4ccccc4cc3c(=O)n12 (configuration not stated) has what GI50? 73.3 µM (inactive)
